assay-protocol: Urinary excretion (bioavailability) after intravenous, oral and nasal administration in the rat; drug in urine determined by muscarinic receptor binding assay
Assay type: in vivo, male Sprague-Dawley rats
setup-conditions: rat, urine, 2 mg, nasal, solution, 2 mg/rat, hours 0-6, mean of 10 rats; read-out: amount of the compound found in the urine
readout-kind: dose excreted at 6 h (%)

| compound | readout-kind | unit-tag | measured-number |
| --- | --- | --- | --- |
| C[N+]1(CC2CC2)C2CC(OC(=O)C(CO)c3ccccc3)CC1C1OC12 (stereo not shown) [N-cyclopropylmethylscopolamine bromide] | dose excreted at 6 h | % | 5.63 |

###

assay-protocol: Urinary excretion (bioavailability) after intravenous, oral and nasal administration in the rat; drug in urine determined by muscarinic receptor binding assay
Type: in vivo, male Sprague-Dawley rats
setup-conditions: rat, urine, 2 mg, nasal, solution, 2 mg/rat, hours 6-12, mean of 10 rats; read-out: amount of the compound found in the urine

| compound | unit-tag | dose excreted at 12 h |
| --- | --- | --- |
| C[N+]1(CC2CC2)C2CC(OC(=O)C(CO)c3ccccc3)CC1C1OC12 (stereo not shown) [N-cyclopropylmethylscopolamine bromide] | % | 0.38 |

###

assay-protocol: Urinary excretion (bioavailability) after intravenous, oral and nasal administration in the rat; drug in urine determined by muscarinic receptor binding assay
Format: in vivo, male Sprague-Dawley rats
setup-conditions: rat, urine, 2 mg, nasal, gel, 2 mg/rat, hours 0-24, mean of 10 rats; read-out: amount of the compound found in the urine

| compound | dose excreted at 24 h |
| --- | --- |
| C[N+]1(CC2CC2)C2CC(OC(=O)C(CO)c3ccccc3)CC1C1OC12 (stereo not shown) [N-cyclopropylmethylscopolamine bromide] | 6.06% |
